# Target of assay: UniProt P35408
# Test method notes: hEP4 b-arrestin assay (PathHunter HEK 293 PTGER4 b-arrestin cells)
# Type: cell-based
# Condition summary: antagonistic activity on hEP4; mean where measured multiple times
List of log10 IC50 values.
Property: log10 IC50 (log10 of the value in nM)

COc1cc(F)c(F)c2c1cc(C)n2CCNc1cc(-c2ccc(-c3c[nH]cn3)cc2)ncn1 :: 1.67
CCCC1NC(=O)c2ccc(-c3cc(NCCn4c(C)cc5c(OC)cccc54)ncn3)cc21 (racemic) :: 2.48
CCOc1cc(-c2cc(NCCn3c(C)cc4ccc(OC)cc43)ncn2)sc1C(=O)O :: 2.06
Cc1cc(F)c(F)c2c1cc(C)n2CCNc1cc(-c2ccc3cc[nH]c3c2)ncn1 :: 2.69
COc1ccc(F)c2c1cc(C)n2CCNc1cc(-c2ccc3[nH]c(C)nc3c2)ncn1 :: 1.93
Cc1ccc(F)c2c1cc(C)n2CCNc1cc(-c2ccc3nccnc3c2)ncn1 :: 2.76
Cc1ccc(F)c2c1cc(C)n2CCNc1cc(-c2cc(Cl)c(C(=O)O)c(Cl)c2)ncn1 :: 2.37
CCOc1cc(-c2cc(NCCn3c(C)cc4c(C)cc(Cl)cc43)ncn2)sc1C(=O)O :: 1.30
CCc1cc(-c2cc(NCCn3c(C)cc4c(OC)ccc(F)c43)ncn2)cc(Cl)c1C(=O)O :: 1.70

---

# Target of assay: EP4 (Homo sapiens (Human), UniProt P35408)
# Sequence (P35408 whole entry): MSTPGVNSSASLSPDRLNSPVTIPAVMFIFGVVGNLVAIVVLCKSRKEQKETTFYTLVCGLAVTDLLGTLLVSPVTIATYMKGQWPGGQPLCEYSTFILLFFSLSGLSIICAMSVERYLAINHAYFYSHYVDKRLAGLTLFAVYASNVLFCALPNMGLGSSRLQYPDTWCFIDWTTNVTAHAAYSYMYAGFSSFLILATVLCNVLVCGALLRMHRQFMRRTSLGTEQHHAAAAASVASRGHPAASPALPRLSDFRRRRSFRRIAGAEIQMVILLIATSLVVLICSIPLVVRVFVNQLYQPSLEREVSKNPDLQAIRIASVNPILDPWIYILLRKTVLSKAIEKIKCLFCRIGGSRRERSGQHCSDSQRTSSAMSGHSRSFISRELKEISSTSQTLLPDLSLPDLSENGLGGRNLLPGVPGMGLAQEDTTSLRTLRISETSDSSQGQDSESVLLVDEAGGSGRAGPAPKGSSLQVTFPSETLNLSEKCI
# Test method notes: hEP4 cAMP assay (BT549 breast cancer cells, HTRF cAMP)
# Type: cell-based
# Condition summary: antagonistic activity; mean values where measured multiple times
Property: IC50

COc1cc(F)cc2c1cc(C)n2CCNc1cc(-c2ccc(-c3coc(C)n3)cc2)ncn1 :: 203 nM
Cc1cc(-c2ccc(-c3cc(NCCn4c(C)cc5c(C)ccc(F)c54)ncn3)cc2)on1 :: 958 nM
COc1ccc(F)c2c1cc(C)n2CCNc1cc(-c2ccc(-c3cnc(CCC(=O)O)o3)cc2)ncn1 :: 312 nM
CCOc1cc(-c2cc(NCCn3c(C)cc4c(OC)ccc(F)c43)ncn2)ccc1C(O)C(F)(F)F (racemic) :: 511 nM
CCOc1cc(-c2cc(NCCn3c(C)cc4c(OC)cc(F)cc43)nc(C(F)(F)F)n2)sc1C(=O)O :: 186 nM

---

# Target of assay: PTRGER4 (EP4) (Homo sapiens (Human))
# Sequence (P35408 whole entry, looked up): as the sequence (P35408 whole entry) above
# Test method notes: hEP4 b-arrestin assay (PathHunter HEK 293 PTGER4 b-arrestin cells)
# Type: cell-based
# Condition summary: antagonistic activity on hEP4; mean where measured multiple times
Property: IC50 (nM)

CCCNc1cc(-c2cc(NCCn3c(C)cc4c(C)ccc(F)c43)ncn2)ccc1C(=O)O :: 165
CCc1cc(-c2cc(NCCn3c(C)cc4cc(F)cc(F)c43)ncn2)ccc1C(=O)O :: 974
CNc1cc(-c2cc(NCCn3c(C)cc4c(C)ccc(F)c43)ncn2)ccc1C(=O)O :: 48

---

# Target of assay: PTRGER4 (EP4) (Homo sapiens (Human))
# Test method notes: hEP4 b-arrestin assay (PathHunter HEK 293 PTGER4 b-arrestin cells)
# Assay type: cell-based
# Condition summary: antagonistic activity on hEP4; mean where measured multiple times
pIC50: −log10 of the molar value.
Property: pIC50

COc1ccc(F)c2c1cc(C)n2CCNc1cc(-c2ccc(C(=O)O)c([N+](=O)[O-])c2)ncn1 [compound 394] :: 6.53
Cc1cc(F)cc2c1cc(C)n2CCNc1cc(-c2ccc3cnn(C)c3c2)ncn1 [compound 53] :: 6.46
CCOc1cc(-c2cc(NCCn3c(C)cc4c(Cl)cc(F)cc43)ncn2)sc1C(=O)O [compound 239] :: 7.72
CCOc1cc(-c2cc(NCCn3c(C)cc4c(OC)ccc(Cl)c43)ncn2)sc1C(=O)O [compound 256] :: 7.54

---

# Target of assay: PTGER2 (EP2) (Homo sapiens (Human), UniProt P43116)
# Sequence (P43116 whole entry): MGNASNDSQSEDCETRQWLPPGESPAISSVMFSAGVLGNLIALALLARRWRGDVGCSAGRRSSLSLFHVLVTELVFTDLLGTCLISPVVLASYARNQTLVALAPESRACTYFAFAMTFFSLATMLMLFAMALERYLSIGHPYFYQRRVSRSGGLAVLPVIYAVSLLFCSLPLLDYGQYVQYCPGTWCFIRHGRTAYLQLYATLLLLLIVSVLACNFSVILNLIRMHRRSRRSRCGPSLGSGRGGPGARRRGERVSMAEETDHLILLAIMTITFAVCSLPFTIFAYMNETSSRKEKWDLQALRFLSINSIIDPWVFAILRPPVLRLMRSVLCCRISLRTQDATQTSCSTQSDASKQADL
# Test method notes: hEP2 b-arrestin assay (PathHunter HEK 293 PTGER2 b-arrestin cells)
# Format: cell-based
# Condition summary: hEP2 b-arrestin assay (values without asterisk)
pIC50: −log10 of the molar value.
Reported pIC50 values are given for each entry in this list.
Property: pIC50

COc1ccc(F)c2c1cc(C#N)n2CCNc1cc(-c2ccc3[nH]c(=O)[nH]c3c2)ncn1 [Example 1000] :: 7.46
CCOc1cc(-c2cc(NCCn3c(C)cc4c(OC)ccc(F)c43)ncn2)ccc1-c1noc(=O)[nH]1 [Example 830] :: 8.52
COc1ccc(F)c2c1cc(C#N)n2CCNc1cc(-c2ccc(OCC(=O)O)c(OC(F)(F)F)c2)ncn1 [Example 828] :: 8.00
Cc1cccc2c1cc(C)n2CCNc1cc(-c2cc(OC(C)C)c(C(=O)O)s2)ncn1 [Example 879] :: 8.40
CCCOc1cc(-c2cc(NCCn3c(C#N)cc4c(OC)ccc(F)c43)ncn2)cc(F)c1C(=O)O [Example 908] :: 7.77
CCOc1cc(-c2cc(NCCn3c(C#N)cc4c(OC)ccc(F)c43)ncn2)ccc1-c1nnn[nH]1 [Example 803] :: 8.00
CCOc1cc(-c2cc(NCCn3c(C)cc4c(OC)ccc(F)c43)ncn2)sc1C(=N)NO [Example 1052] :: 8.52
CCOc1cc(-c2cc(NCCn3c(C#N)cc4c(OC)ccc(F)c43)ncn2)ccc1-c1noc(=O)[nH]1 [Example 820] :: 8.22
COc1ccc(F)c2c1cc(C#N)n2CCNc1cc(-c2ccc(CNS(C)(=O)=O)cc2)ncn1 [Example 983] :: 6.61
CCOc1cc(-c2cc(NCCn3c(C)cc4c(OC)ccc(F)c43)ncn2)ccc1-c1nc(C)c(C)o1 [Example 848] :: 7.70
CCOc1cc(-c2cc(NCCn3c(C)cc4c(OC)ccc(F)c43)ncn2)sc1CO [Example 1031] :: 8.52
CCOc1cc(-c2cc(NCCn3c(C#N)cc4c(OC)ccc(F)c43)ncn2)sc1C(=O)NS(C)(=O)=O [Example 809] :: 8.52
CCOc1cc(-c2cc(NCCn3c(C#N)cc4c(OC)ccc(F)c43)ncn2)sc1C(=O)Oc1ccccc1 [Example 1049] :: 7.68
CCOc1c(C(=O)O)ccc(-c2cc(NCCn3c(C#N)cc4c(OC)ccc(F)c43)ncn2)c1F [Example 928] :: 7.43
COc1ccc(F)c2c1cc(C#N)n2CCNc1cc(-c2cc(F)c(C(=O)O)s2)ncn1 [Example 806] :: 8.15
COc1ccc(F)c2c1cc(C#N)n2CCNc1cc(-c2ccc(NC=O)cc2)ncn1 [Example 971] :: 7.41
CCc1cc(-c2cc(NCCn3c(C#N)cc4c(OC)ccc(F)c43)ncn2)ccc1OCC(=O)O [Example 834] :: 7.82
COc1cccc2c1cc(C#N)n2CCNc1cc(-c2cc(F)c(C(=O)O)s2)ncn1 [Example 902] :: 8.52
COc1ccc(F)c2c1cc(C#N)n2CCNc1cc(-c2ccc(OCC(=O)O)c(Cl)c2)ncn1 [Example 841] :: 7.60
CCNC(=O)c1sc(-c2cc(NCCn3c(C#N)cc4c(OC)ccc(F)c43)ncn2)cc1OCC [Example 1024] :: 7.85
COc1ccc(F)c2c1cc(C)n2CCNc1cc(-c2nc(OC(C)C)c(C(=O)O)s2)ncn1 [Example 1032] :: 8.00
CCOc1cc(-c2cc(NC(C)Cn3c(C)cc4c(OC)ccc(F)c43)ncn2)sc1C(=O)O (racemic) [Example 797] :: 7.48
CCOc1cc(-c2cc(NCCn3c(C#N)cc4c(Cl)cccc43)ncn2)sc1C(=O)O [Example 909] :: 8.52
COc1ccc(F)c2c1cc(C#N)n2CCNc1cc(-c2cc3cc(C(=O)O)ccc3[nH]2)ncn1 [Example 960] :: 8.05
CCOc1cc(-c2cc(NCCn3c(C)cc4c(OC)ccc(F)c43)ncn2)ccc1OC(C)C(=O)O (racemic) [Example 843] :: 7.96
COc1ccc(F)c2c1cc(C#N)n2CCNc1cc(-c2ccc3[nH]ncc3c2)ncn1 [Example 977] :: 8.30
CCCCOc1cc(-c2cc(NCCn3c(C)cc4c(OC)cc(F)c(F)c43)ncn2)ccc1C(=O)O [Example 878] :: 9.00

---

# Target of assay: PTGER2 (EP2) (Homo sapiens (Human), UniProt P43116)
# Test method notes: hEP2 b-arrestin assay (PathHunter HEK 293 PTGER2 b-arrestin cells)
# Assay type: cell-based
# Condition summary: antagonistic activity on hEP2; mean where measured multiple times
The following compounds are listed with their measured IC50 values.
Property: IC50 (nM)

CCOc1cc(-c2cc(NCCn3c(C)cc4cc(F)c(Cl)c(Cl)c43)ncn2)sc1C(=O)O [compound 272] :: 8
CCN1Cc2cc(-c3cc(NCCn4c(C)cc5c(C)ccc(F)c54)ncn3)ccc2C1=O [compound 206] :: 88
COc1cc(-c2cc(NCCn3c(C)cc4c(OC)ccc(F)c43)ncn2)ccc1C(=O)O [compound 260] :: 28
CCOc1cc(-c2cc(NCCn3c(C)cc4c(F)c(F)cc(F)c43)ncn2)sc1C(=O)O [compound 275] :: 1
COc1ccc(F)c2c1cc(C)n2CCNc1cc(-c2cc(C)c(C(=O)O)s2)ncn1 [compound 107] :: 5
CC(C)Cc1cc(-c2cc(NCCn3c(C#N)cc4ccccc43)ncn2)ccc1C(=O)O [compound 165] :: 19
CCCc1cc(-c2cc(NCCn3c(C)cc4c(C)cccc43)ncn2)ccc1C(=O)O [compound 120] :: 6
CCNc1cc(-c2cc(NCCn3c(C)cc4c(C)ccc(F)c43)ncn2)ccc1C(=O)O [compound 245] :: 9
CCCc1cc(-c2cc(NCCn3c(C)cc4c(F)ccc(Cl)c43)ncn2)cc(F)c1C(=O)O [compound 340] :: 5
